Biological target: SHP2 protein (Homo sapiens, UniProt Q06124)
Sequence (Q06124 whole entry): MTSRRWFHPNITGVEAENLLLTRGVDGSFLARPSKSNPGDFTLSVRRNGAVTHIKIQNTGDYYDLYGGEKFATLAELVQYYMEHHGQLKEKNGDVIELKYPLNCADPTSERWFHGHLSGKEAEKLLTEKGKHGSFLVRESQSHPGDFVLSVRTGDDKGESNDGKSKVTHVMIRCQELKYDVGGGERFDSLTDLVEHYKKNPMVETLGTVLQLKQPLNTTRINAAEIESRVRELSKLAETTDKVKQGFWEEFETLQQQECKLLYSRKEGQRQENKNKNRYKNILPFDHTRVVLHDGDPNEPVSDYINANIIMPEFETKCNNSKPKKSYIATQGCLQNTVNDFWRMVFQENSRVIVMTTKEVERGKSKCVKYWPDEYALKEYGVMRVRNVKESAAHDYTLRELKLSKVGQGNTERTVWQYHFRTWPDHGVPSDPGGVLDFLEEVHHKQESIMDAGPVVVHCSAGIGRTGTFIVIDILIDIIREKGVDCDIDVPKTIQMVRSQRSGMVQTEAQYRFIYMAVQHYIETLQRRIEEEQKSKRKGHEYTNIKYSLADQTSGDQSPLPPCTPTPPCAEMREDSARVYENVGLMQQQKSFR
Assay: Measurement of SHP2 protein degradation in MV-4-11 cells (western blotting)
Assay type: cell-based
Set-up: endogenous in cells
Conditions: 0.1 μM, harvested after 24 hours
Assay metric: SHP2% degradation (%)
// note: answer is a bare numeric in %

Use the examples below as a reference point.
Molecule smiles: Cc1ncsc1-c1ccc(CNC(=O)[C@@H]2C[C@@H](O)CN2C(=O)[C@@H](NC(=O)C2(F)CC2)C(C)(C)C)c(OC2CCN(C(=O)[C@H]3C[C@@H](Nc4nccc(Sc5cnc(N6CCC(C)(N)CC6)cn5)c4Cl)C3)CC2)c1
SHP2% degradation / %: 99.3
//
Molecule smiles: CC(=O)N[C@H](C(=O)N1C[C@H](O)C[C@H]1C(=O)NCc1ccc(-c2scnc2C)cc1OC1CCN(C(=O)C2CCN(c3nccc(Sc4cnc(N5CCC(C)(CN)CC5)cn4)c3Cl)CC2)CC1)C(C)(C)C
SHP2% degradation / %: 99.3
//
Molecule smiles: CC(=O)N[C@H](C(=O)N1C[C@H](O)C[C@H]1C(=O)NCc1ccc(-c2scnc2C)cc1O[C@H]1CC[C@H](C(=O)N2CC(Nc3cccc(Sc4cnc(N5CCC(C)(CN)CC5)cn4)c3Cl)C2)CC1)C(C)(C)C
SHP2% degradation / %: 99.9
//
Molecule smiles: Cc1ncsc1-c1ccc(CNC(=O)[C@@H]2C[C@@H](O)CN2C(=O)[C@@H](NC(=O)C2(F)CC2)C(C)(C)C)c(O[C@H]2CC[C@H](C(=O)N3CC(Nc4cccc(Oc5cnc(N6CCC(C)(CN)CC6)cn5)c4Cl)C3)CC2)c1
SHP2% degradation / %: 94.3
//
Molecule smiles: Cc1ncsc1-c1ccc(CNC(=O)[C@@H]2C[C@@H](O)CN2C(=O)[C@@H](NC(=O)C2(F)CC2)C(C)(C)C)c(OC2CCN(C(=O)[C@H]3CC[C@H](Nc4nccc(Sc5cnc(N6CCC(C)(CN)CC6)cn5)c4Cl)CC3)CC2)c1
SHP2% degradation / %: 98.9

Report SHP2% degradation, nothing else, for this compound: Cc1ncsc1-c1ccc(CNC(=O)[C@@H]2C[C@@H](O)CN2C(=O)[C@@H](NC(=O)C2(F)CC2)C(C)(C)C)c(OC2CCN(C(=O)C3(C)CCN(c4nccc(Sc5cnc(N6CCC(C)(CN)CC6)cn5)c4Cl)CC3)CC2)c1 95.7

Report SHP2% degradation, nothing else, for this compound: CC(=O)N[C@H](C(=O)N1C[C@H](O)C[C@H]1C(=O)NCc1ccc(-c2scnc2C)cc1O[C@H]1CC[C@H](C(=O)N2CC(Nc3cccc(Sc4cnc(N5CCC6(CC5)Cc5ccccc5[C@H]6N)cn4)c3Cl)C2)CC1)C(C)(C)C 99.9

Report SHP2% degradation, nothing else, for this compound: Cc1ncsc1-c1ccc(CNC(=O)[C@@H]2C[C@@H](O)CN2C(=O)[C@@H](NC(=O)C2(F)CC2)C(C)(C)C)c(OCCN2CCC(C(=O)N3CCN(c4nccc(Sc5cnc(N6CCC(C)(CN)CC6)cn5)c4Cl)CC3)CC2)c1 91.9

Report SHP2% degradation, nothing else, for this compound: Cc1ncsc1-c1ccc(CNC(=O)[C@@H]2C[C@@H](O)CN2C(=O)[C@@H](NC(=O)C2(F)CC2)C(C)(C)C)c(OC2CC3(CCN(C(=O)C4CCN(c5nccc(Sc6cnc(N7CCC(C)(CN)CC7)cn6)c5Cl)CC4)CC3)C2)c1 96.8
